TGT: T1, soluble human TNFR2 (human, UniProt P20333 23-257)
T1 construct: also called soluble TNFR2
T1 sequence (looked up): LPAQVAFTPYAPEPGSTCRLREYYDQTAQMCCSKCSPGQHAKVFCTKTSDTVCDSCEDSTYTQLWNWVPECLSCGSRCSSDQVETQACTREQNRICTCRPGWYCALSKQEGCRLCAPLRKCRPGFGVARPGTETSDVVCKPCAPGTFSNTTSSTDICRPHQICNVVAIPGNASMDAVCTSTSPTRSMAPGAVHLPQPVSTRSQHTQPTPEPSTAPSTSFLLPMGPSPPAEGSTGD
TEST_PROTOCOL: competition ELISA, plate-bound soluble human TNFR2, biotinylated TNFα as competitor
Where Average Relative IC50 equals or exceeds 3 nM, the correct label is Satisfied; where it does not, the label is Not satisfied.

{"BINDER": "SBT-002 (antibody, V domains shown, Parental mouse antibody; also called mouse SBT-002) VH: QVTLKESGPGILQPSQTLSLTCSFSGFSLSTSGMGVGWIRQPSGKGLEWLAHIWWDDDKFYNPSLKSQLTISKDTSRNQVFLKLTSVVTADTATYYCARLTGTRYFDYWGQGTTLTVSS VL: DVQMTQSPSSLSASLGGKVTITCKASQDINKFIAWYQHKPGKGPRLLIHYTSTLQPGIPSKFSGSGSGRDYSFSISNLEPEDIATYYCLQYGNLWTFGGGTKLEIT", "CLASS_NAME": "Not satisfied"}
{"BINDER": "chimeric SBT-004 (antibody, V domains shown, VH fused to a human IgG1 Fc domain; also called chSBT-004) VH: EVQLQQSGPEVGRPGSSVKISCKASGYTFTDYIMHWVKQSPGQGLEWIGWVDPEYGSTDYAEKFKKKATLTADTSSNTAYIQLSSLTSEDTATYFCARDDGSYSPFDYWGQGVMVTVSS VL: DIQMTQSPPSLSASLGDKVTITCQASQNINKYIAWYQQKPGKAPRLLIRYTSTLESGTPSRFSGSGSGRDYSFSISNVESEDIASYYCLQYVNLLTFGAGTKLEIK", "CLASS_NAME": "Satisfied"}
{"BINDER": "chimeric SBT-003 (antibody, V domains shown, also called chSBT-003) VH: QIQLVQSGPELKKPGETVKISCKASGYTFTDYSMHWVKQAPGKGLKWMGWINTETGEPTYADDFKGRFAFSSETSTSTAYLQINNLKNDDTTTYFCATYYGSSYVPDYWGQGTSLTVSS VL: DIVMTQSHKFMSTSVGDRVSITCKASQNVGTAVAWYQHKPGQSPKLLIYWTSSRHTGVPDRFTGSGSGTEFTLTISNVQSEDLADYFCHQYSDYPYTFGGGTKLEIK", "CLASS_NAME": "Satisfied"}

These data points were gathered from patent US20190202925A1.
